# Tested on: M14
# EXPERIMENT DESCRIPTION: NCI tumour cell line growth inhibition, 48 h
Activity calls are given as the source filed them. Cut-off read from the data, not from the text of the source: active = GI50 up to about 1.1 µM and inactive = higher.
Outcomes: YES for active, NO for inactive

>>> category_label("N#Cc1c(OCCF)c2ccccc2n2c1nc1ccccc12")
"NO"
>>> category_label("CC1(C)C2CCC1(CC(=O)O)C(Cl)C2 (configuration not stated)")
"NO"
>>> category_label("C[C@]12CCC(=O)C=C1CC[C@@H]1[C@@H]2C(=O)C[C@@]2(C)[C@H]1CC[C@]2(O)C(=O)CO [CORTISONE]")
"NO"
>>> category_label("COc1ccc(OC)c2c(=O)c3ccccc3[nH]c12")
"NO"
>>> category_label("O=c1c(-c2c(-c3ccccc3)oc3ccc(Cl)cc3c2=O)c(-c2ccccc2)oc2ccc(Cl)cc12")
"NO"
>>> category_label("Cc1ccc(C2=C(Cl)C(=O)C(c3ccc(C)cc3)=C(Cl)C2=O)cc1")
"NO"
>>> category_label("CC12CC1C(c1cccc([N+](=O)[O-])c1)(c1cccc([N+](=O)[O-])c1)N=N2 (configuration not stated)")
"NO"
>>> category_label("C[C@@H]1OCC(O)C([C@H]2OC(c3ccccc3)=N[C@H]2CO)O1 (some centres not stated)")
"NO"
>>> category_label("Oc1ccc2ccccc2c1/N=N/c1ccccc1")
"NO"
>>> category_label("COC(=O)[C@]1(C)CC[C@]2(C)CC[C@]3(C)C4[C@H]5Oc6c(cc7c(c6C)CCC6[C@@]7(C)CC[C@@]7(C)C8[C@](C)(CCC[C@@]8(C)C(=O)OC)CC[C@]67C)O[C@H]5c5c(cc6c(c5C)O[C@@]5(C)C7=CC=C8[C@@](C)(CC[C@@]9(C)[C@@H]%10C[C@](C)(C(=O)OC)CC[C@]%10(C)CC[C@]89C)C7=CC(=O)[C@@]5(O)O6)[C@]4(C)CC[C@@]3(C)C2C1 (some centres not stated)")
"NO"
>>> category_label("COc1cc(/C=C2\\CC3C4CC[C@H]5C[C@@H](O)CC[C@]5(C)C4CC[C@]3(C)C2=O)cc(OC)c1OC (some centres not stated)")
"NO"
>>> category_label("c1ccc(C2=NC3OC2c2ccccc23)cc1 (configuration not stated)")
"NO"
>>> category_label("CC(=O)O[C@H]1[C@@H]2[C@@H]3[C@@H](C[C@H]1C)[C@@H](C)CO[C@@]1(C)CC/C=C(/C)C[C@@H]2O[C@@H]31")
"NO"
>>> category_label("COc1ccc2c(c1)CCC1C3(CCCC21C)OCCO3 (configuration not stated)")
"NO"
>>> category_label("CC(C)=CC1CC(C)C2(CCC3(C)CC4C(C(=O)CC4(C)O)/C(C=O)=C\\CC32)O1 (configuration not stated)")
"YES"
>>> category_label("CCOC(=O)/C=C(/C(=O)OCC)n1cnc2c(=O)[nH]c(NC(C)=O)nc21")
"NO"
>>> category_label("C[C@H]1CC[P+](Cc2ccccc2)(c2ccccc2)C1 (some centres not stated)")
"NO"

---

# Test system: NCI-H522
# EXPERIMENT DESCRIPTION: NCI tumour cell line growth inhibition, 48 h
Active and inactive are the calls of the source. Rule as the data show it: active = GI50 up to about 1.1 µM and inactive = higher.
PROPERTY MEASURED: GI50

>>> observed("C=C1C(O)C2OC(=O)C(=C)C2C(OC(=O)/C(C)=C/C)CC2(C)OC2C2OC12 (stereo unspecified)")
"3.15 µM (inactive)"
>>> observed("C/N=C(\\N=c1/ss/c(=N\\C)n1C)N(C)C.[O-][Cl+3]([O-])([O-])O")
"76 µM (inactive)"
>>> observed("CCOC(=O)CC(C)C1(C=O)CCCCC1=O (stereo unspecified)")
"90.4 µM (inactive)"
>>> observed("CCOC(=O)C(C)NC(=O)NC12CC3CC(CC(F)(C3)C1)C2 (stereo unspecified)")
"65.2 µM (inactive)"
>>> observed("CCCCc1ccc(NC(=N)N)cc1")
"28.1 µM (inactive)"
>>> observed("NC(=O)Cn1c(=O)[nH]c(=O)c2[nH]cnc21")
"> 100 µM (inactive)"

---

# Test system: SF-539
# EXPERIMENT DESCRIPTION: NCI tumour cell line growth inhibition, 48 h
The source made the active and inactive calls. Rule as the data show it: active = GI50 up to about 1.1 µM and inactive = higher.
The entries below are paired with their reported GI50.
PROPERTY MEASURED: GI50

>>> observed("COc1cc2c(cc1OC)C(C(CO)CO)N(CC(O)CCl)CC2 (stereo not given)")
"> 100 µM (inactive)"
>>> observed("COc1ccc2cc3[n+](cc2c1OC)CCc1cc(O)c(O)cc1-3")
"> 100 µM (inactive)"
>>> observed("CN1C(=O)[C@@H]2N(CSC2(C)C)C1=S")
"> 100 µM (inactive)"
>>> observed("O=[N+]([O-])C(=C(Nc1cccc2cccnc12)Nc1cccc2cccnc12)C(Cl)=C(Cl)Cl")
"> 100 µM (inactive)"
>>> observed("COc1ccccc1NC(=O)CC(=O)n1nc(C)c(/N=N/c2ccccc2Cl)c1C")
"56.1 µM (inactive)"

---

# Test system: OVCAR-5
# EXPERIMENT DESCRIPTION: NCI tumour cell line growth inhibition, 48 h
Calls of active or inactive are those of the source. No stated cut-off is given here; in the data, active = GI50 up to about 1.1 µM and inactive = higher.
PROPERTY MEASURED: GI50

>>> observed("O=C(O)CCC(C(=O)O)N1C(=O)c2ccccc2C1=O (stereo not drawn)")
"> 100 µM (inactive)"
>>> observed("Nc1ccc(C(=O)N2CCC[C@H]2CO)c(N)c1")
"> 100 µM (inactive)"
>>> observed("Cc1cc(C)nc(NS(=O)(=O)c2ccc(NNC(=O)c3cccc4c(=O)c5ccccc5[nH]c34)cc2)n1")
"21.5 µM (inactive)"
>>> observed("CC[C@@H]1OC2(C)CC(S(=O)(=O)c3ccccc3O)CC1O2 (stereo partly drawn)")
"> 100 µM (inactive)"
>>> observed("O=C1CC(NC(=O)C(F)(F)F)c2c1csc2Br (stereo not drawn)")
"2.24 µM (inactive)"
>>> observed("COC(=O)[C@]1(C)CC[C@]2(C)CC[C@]3(C)C4[C@H]5Oc6c(cc7c(c6C)CCC6[C@@]7(C)CC[C@@]7(C)C8[C@](C)(CCC[C@@]8(C)C(=O)OC)CC[C@]67C)O[C@H]5c5c(cc6c(c5C)O[C@@]5(C)C7=CC=C8[C@@](C)(CC[C@@]9(C)[C@@H]%10C[C@](C)(C(=O)OC)CC[C@]%10(C)CC[C@]89C)C7=CC(=O)[C@@]5(O)O6)[C@]4(C)CC[C@@]3(C)C2C1 (stereo partly drawn)")
"9.79 µM (inactive)"
>>> observed("O=S(=O)(c1ccccc1)c1ccc(/N=N/O)nc1")
"> 100 µM (inactive)"
>>> observed("N#Cc1nc(CCC(c2nc(C#N)c(N)o2)N2C(=O)c3ccccc3C2=O)oc1N (stereo not drawn)")
"> 100 µM (inactive)"

---

# Tested on: KM12
# EXPERIMENT DESCRIPTION: NCI tumour cell line growth inhibition, 48 h
The source made the active and inactive calls. Cut-off read from the data, not from the text of the source: active = GI50 up to about 1.1 µM and inactive = higher.
The entries below are paired with their reported GI50.
PROPERTY MEASURED: GI50

>>> observed("c1ccc(C2=NC3OC2c2ccccc23)cc1 (stereo not given)")
"> 10 µM (inactive)"
>>> observed("COC(=O)c1cc(NC(=O)Cc2c[nH]c3ccccc23)cn1C")
"> 100 µM (inactive)"
>>> observed("Cc1ccc(S(=O)(=O)NC(=O)NCCc2ccc(O)c(O)c2)cc1")
"> 100 µM (inactive)"
>>> observed("O=C(C1OC1c1ccc(F)cc1)C12CC3CC(CC(C3)C1)C2 (stereo not given)")
"15.7 µM (inactive)"
>>> observed("CC1(C)[N+]([O-])=[N+]([O-])C1(C)O (stereo not given)")
"> 100 µM (inactive)"
>>> observed("O=C1NCC2=C1CCC1c3ccccc3CCN21 (stereo not given)")
"> 100 µM (inactive)"
>>> observed("C=C1C[C@@H](O)[C@@H](Br)C(C)(C)[C@@]12C=CC(=O)CC2")
"1.52 µM (inactive)"
>>> observed("CC1(C)N=C(N)N=C(N)N1c1cccc(OCCOc2ccc([N+](=O)[O-])cc2)c1")
"11.5 µM (inactive)"
>>> observed("NS(=O)(=O)c1ccc2c(c1)OCCOCCOCCOCCO2")
"> 100 µM (inactive)"
>>> observed("CC(C)CSCC1OC(n2cnc3c(N)nccc32)C(O)C1O (stereo not given)")
"> 100 µM (inactive)"
>>> observed("CC(=O)OC1CC2C(C)(C)C(=O)C=C[C@]2(C)C2CCC3(C)C(c4ccoc4)[C@@H](O)[C@H]4O[C@]43[C@]12C (stereo not given in full)")
"19.2 µM (inactive)"
>>> observed("[N-]=[N+]=Nc1cc(=O)[nH]nc1-c1ccccc1")
"> 100 µM (inactive)"
>>> observed("Cc1ccc(NC(=O)CCC/C(CC(=O)c2ccc(Br)cc2)=N/NC(=O)CC#N)cc1")
"> 100 µM (inactive)"
>>> observed("CC1(C)CC(=O)C(C(=O)Nc2cccs2)=C(O)C1")
"38.1 µM (inactive)"
>>> observed("Cc1c(C(=O)O)c2cc3ccccc3cc2c(=O)n1C")
"> 10 µM (inactive)"
